# experimental.target: Rap guanine nucleotide exchange factor 4 (Homo sapiens, UniProt Q8WZA2)
# Sequence (Q8WZA2 whole entry): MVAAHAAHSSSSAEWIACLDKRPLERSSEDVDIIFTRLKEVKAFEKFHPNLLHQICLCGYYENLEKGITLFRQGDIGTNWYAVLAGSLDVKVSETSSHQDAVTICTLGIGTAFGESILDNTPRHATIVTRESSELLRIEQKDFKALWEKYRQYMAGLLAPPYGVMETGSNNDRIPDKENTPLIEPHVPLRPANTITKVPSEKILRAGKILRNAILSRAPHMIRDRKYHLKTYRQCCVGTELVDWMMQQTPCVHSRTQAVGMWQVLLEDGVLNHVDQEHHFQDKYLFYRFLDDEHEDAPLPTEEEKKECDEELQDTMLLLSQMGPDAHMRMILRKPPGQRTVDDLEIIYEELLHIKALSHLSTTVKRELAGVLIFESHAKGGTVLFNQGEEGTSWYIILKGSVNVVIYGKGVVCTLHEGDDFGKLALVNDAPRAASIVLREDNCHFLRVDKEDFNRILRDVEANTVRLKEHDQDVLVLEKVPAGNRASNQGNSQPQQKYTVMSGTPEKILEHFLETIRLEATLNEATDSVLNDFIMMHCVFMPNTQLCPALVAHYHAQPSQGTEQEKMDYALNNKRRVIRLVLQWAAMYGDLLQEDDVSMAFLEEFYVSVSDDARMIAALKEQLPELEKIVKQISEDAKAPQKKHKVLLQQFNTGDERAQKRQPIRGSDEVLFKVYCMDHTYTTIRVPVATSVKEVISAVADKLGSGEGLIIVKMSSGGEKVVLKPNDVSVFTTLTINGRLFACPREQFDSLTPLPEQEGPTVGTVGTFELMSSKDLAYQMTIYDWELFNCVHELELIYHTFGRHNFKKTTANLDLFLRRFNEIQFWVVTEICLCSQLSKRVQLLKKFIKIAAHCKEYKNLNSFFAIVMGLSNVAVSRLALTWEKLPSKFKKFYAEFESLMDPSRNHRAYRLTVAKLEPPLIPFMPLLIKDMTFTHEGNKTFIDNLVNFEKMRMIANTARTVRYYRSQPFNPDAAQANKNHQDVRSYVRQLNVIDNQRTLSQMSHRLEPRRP
# method.description: Displacement of 8-NBD-cAMP from EPAC2 (unknown origin) by fluorescence plate reader analysis
property.measured: IC50 (µM)

[
  {
    "given.smiles": "O=C1C=CC2=C(Oc3c(ccc(O)c3O)/C2=C/C=C(O)O)C1=O",
    "experimental.target": "Rap guanine nucleotide exchange factor 4 (Homo sapiens, UniProt Q8WZA2)",
    "data.value": 3.8
  },
  {
    "given.smiles": "CC(C)(C)c1cc(C(=O)/C(C#N)=N/Nc2cccc(Cl)c2)no1",
    "experimental.target": "Rap guanine nucleotide exchange factor 4 (Homo sapiens, UniProt Q8WZA2)",
    "data.value": 7
  },
  {
    "given.smiles": "N#Cc1c(NC(=O)C(F)(F)F)sc2c3c(=O)c4ccccc4c(=O)c=3oc3ccccc3c12",
    "experimental.target": "Rap guanine nucleotide exchange factor 4 (Homo sapiens, UniProt Q8WZA2)",
    "data.value": 7.9
  },
  {
    "given.smiles": "O=S(=O)(O)c1ccc2c(/N=N/c3c(O)ccc4ccccc34)cccc2c1",
    "experimental.target": "Rap guanine nucleotide exchange factor 4 (Homo sapiens, UniProt Q8WZA2)",
    "data.value": 1.7
  }
]
